meta.source: ChEMBL document CHEMBL4622880

- measured_on: Taste receptor type 2 member 46 (Homo sapiens)
- assay_protocol: Agonist activity at human TAS2R46 expressed in human BEAS2B cells assessed as antiinflammatory activity by measuring reduction in PMA-induced IL-1beta gene expression at 1 uM incubated for 18 hrs in presence of 1 uM TAS2R46 antagonist 3HDC by qRT-PCR analysis
- Assay type: cell-based
Active and inactive are the calls of the source. No cut-off for these calls is given here.
Pick one: active, inactive

# count of solved cases: 3
{"columns": ["compound", "assigned_label"],
 "data": [
  ["COC(=O)[C@@H](C)C1=CC2=C(C)[C@H]3[C@H]([C@@H]4CC5(C)O[C@@]6(C)CC[C@H]7[C@H](C)C(=O)O[C@@H]7C35[C@@H]46)[C@H]2[C@@](C)(O)CC1", "active"],
  ["CC1=C2C=C(C(C)NC(=O)N=[N+]=[N-])CC[C@](C)(O)[C@@H]2[C@H]2[C@@H]3CC4(C)O[C@@]5(C)CC[C@H]6[C@H](C)C(=O)O[C@@H]6C4([C@@H]35)[C@@H]12 (some centres undefined)", "active"],
  ["CC1=C2C=C([C@H](C)C(=O)OCCc3ccccc3)CC[C@](C)(O)[C@@H]2[C@H]2[C@@H]3CC4(C)O[C@@]5(C)CC[C@H]6[C@H](C)C(=O)O[C@@H]6C4([C@@H]35)[C@@H]12", "active"]
]}

# lookup: test call for CC1=C[C@@H]2[C@H]3[C@H](C(C)=C4[C@H]5OC(=O)[C@@H](C)[C@@H]5CC[C@](C)(O)[C@@H]43)[C@@]13[C@@H]2[C@@](C)(O)CC[C@H]1[C@H](C)C(=O)O[C@@H]13
inactive
